Binding affinity: recorded values
molecular target: acetylcholine receptor (Homo sapiens, UniProt P02708); assay: SPR binding affinity (RU) of optimized 5mer/6mer/7mer peptides, Examples 6-7; conditions: SPR, Resonance Units; peptides tested at 10 μM; 6mer-1 Bottom sequence
Sequence (P02708 21-457): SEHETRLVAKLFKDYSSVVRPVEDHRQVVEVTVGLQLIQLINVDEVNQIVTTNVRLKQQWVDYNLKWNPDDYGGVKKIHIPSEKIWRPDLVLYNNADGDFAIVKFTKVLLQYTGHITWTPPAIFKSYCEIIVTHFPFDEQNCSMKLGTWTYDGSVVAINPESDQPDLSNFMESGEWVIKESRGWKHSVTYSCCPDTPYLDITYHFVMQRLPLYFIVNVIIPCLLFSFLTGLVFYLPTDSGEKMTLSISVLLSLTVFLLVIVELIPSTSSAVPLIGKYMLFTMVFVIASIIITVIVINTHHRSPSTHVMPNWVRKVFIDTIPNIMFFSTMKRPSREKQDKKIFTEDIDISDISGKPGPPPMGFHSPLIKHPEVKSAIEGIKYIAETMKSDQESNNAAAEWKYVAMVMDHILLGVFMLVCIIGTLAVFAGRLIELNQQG
Dear colleague, please send the value followed by its unit.

Past entries and their recorded results:
• 6mer-1-1039 (KRADIK) = 40 Ru
• 6mer-1-1145 (RRDCKK) = 40 Ru
• 6mer-1-1191 (RKYTKK) = 39 Ru

Below: the item to evaluate.
Q. Indicate its recorded Binding affinity; the substance in question is 6mer-1-1164 (KKHHAK)
A. 41 Ru

* * *

molecular target: acetylcholine receptor (Homo sapiens); assay: SPR binding affinity (RU) of optimized 5mer/6mer/7mer peptides, Examples 6-7; settings: SPR, Resonance Units; peptides tested at 10 μM; 6mer-1 Bottom sequence
Binding affinity: recorded values
Dear colleague, please send the value followed by its unit.

Past entries and their recorded results:
* 6mer-1-1121 (KKTWWR) | 28 Ru
* 6mer-1-1125 (KKPTDR) | 26 Ru
* 6mer-1-1173 (KKIPMK) | 26 Ru
* 6mer-1-1005 (RKPPDR) | 26 Ru

Below: the item to evaluate.
Q. Indicate its recorded Binding affinity; the substance in question is 6mer-1-1137 (KRFTDK)
A. 33 Ru

Where do the numbers come from? From patent US20250011363A1.
